- assay_comment: Selectivity index, ratio of CC50 for human HepG2.2.15 cells to IC50 for capsid protein in lamivudine/entecavir-resistant Hepatitis B virus harboring rtL180M/rtM204V/rt184L mutant infected in human HepG2.2.15 cells assessed as reduction in viral DNA level
- Type: toxicity, cell-based
- reported_conditions: read-out: Ratio CC50/IC50
measured_parameter: selectivity ratio
Answers are plain numbers.

smiles_notation: CCN(CC)CCOc1ccc2nc(SCc3ccccc3)n(Cc3cccs3)c(=O)c2c1
value: 21.4

Exercise: Look up and report measured selectivity ratio for this entry: CN(C)CCOc1ccc2nc(SCc3ccccc3)n(Cc3cccs3)c(=O)c2c1
Solution: 14.1

----------
Can you tell me CC50 at 72 h for the items I'm about to list?
- assay_comment: Cytotoxicity against human HepG2.2.15 cells assessed as cell viability measured after 72 hrs by MTT assay
- Type: cell-based, HepG2 2.2.15

smiles_notation: Cc1ccc2nc(SCc3ccccc3)n(Cc3cccs3)c(=O)c2c1
CC50 at 72 h: > 100 µM

Hello, I would appreciate it if you could give CC50 at 72 h for each entry below.
1. Nc1ccn([C@@H]2CS[C@H](CO)O2)c(=O)n1
2. COc1ccccc1CSc1nc2ccc(F)cc2c(=O)n1Cc1cccs1
3. COc1ccccc1CSc1nc2ccccc2c(=O)n1Cc1cccs1
4. O=c1c2cc(O)ccc2nc(SCc2ccccc2)n1Cc1cccs1
5. COc1ccccc1CSc1nc2ccc(OCCN(C)C)cc2c(=O)n1Cc1cccs1

Solution:
["> 100 µM", "> 100 µM", "> 100 µM", "> 100 µM", "14.7 µM"]

Batch lookup, CC50 at 72 h per entry.
1. O=c1c2cc(Br)ccc2nc(SCc2ccccc2)n1Cc1cccs1
2. O=c1c2ccccc2nc(SCc2ccccc2)n1Cc1cccs1
3. CCN(CC)CCOc1ccc2nc(SCc3ccccc3)n(Cc3cccs3)c(=O)c2c1
4. COc1ccccc1CSc1nc2ccc(Br)cc2c(=O)n1Cc1cccs1
5. COc1ccc(C(C)=O)cc1CSc1nc2ccc(OCCN(C)C)cc2c(=O)n1Cc1cccs1
6. COc1ccc(C(C)=O)cc1CSc1nc2ccc(Cl)cc2c(=O)n1Cc1cccs1
7. COc1ccc(C(C)=O)cc1CSc1nc2ccc(F)cc2c(=O)n1Cc1cccs1
8. COc1ccccc1CSc1nc2ccc(O)cc2c(=O)n1Cc1cccs1

Solution:
["> 100 µM", "> 100 µM", "15.8 to 18 µM", "> 100 µM", "18 µM", "74.6 µM", "89 µM", "> 100 µM"]

Please report CC50 at 72 h for every entry that follows.
1. O=c1c2cc(Cl)ccc2nc(SCc2ccccc2)n1Cc1cccs1
2. COc1ccc(C(C)=O)cc1CSc1nc2ccccc2c(=O)n1Cc1cccs1
3. O=c1c2cc(I)ccc2nc(SCc2ccccc2)n1Cc1cccs1
4. CCN(CC)CCOc1ccc2nc(SCc3ccccc3OC)n(Cc3cccs3)c(=O)c2c1

Solution:
1: > 100 µM; 2: 71.5 µM; 3: > 100 µM; 4: 10.1 µM

Below are some compounds; for each one, tell me its CC50 at 72 h.
1. COc1ccc(C(C)=O)cc1CSc1nc2ccc(Br)cc2c(=O)n1Cc1cccs1
2. O=c1c2cc(F)ccc2nc(SCc2ccccc2)n1Cc1cccs1
3. COc1ccc(C(C)=O)cc1CSc1nc2ccc(C)cc2c(=O)n1Cc1cccs1
4. COc1ccccc1CSc1nc2ccc(C)cc2c(=O)n1Cc1cccs1
5. CN(C)CCOc1ccc2nc(SCc3ccccc3)n(Cc3cccs3)c(=O)c2c1

Solution:
["> 100 µM", "> 100 µM", "> 100 µM", "> 100 µM", "21.1 to 26.7 µM"]
